Target: UniProtKB D3W065
Sequence (D3W065 whole entry): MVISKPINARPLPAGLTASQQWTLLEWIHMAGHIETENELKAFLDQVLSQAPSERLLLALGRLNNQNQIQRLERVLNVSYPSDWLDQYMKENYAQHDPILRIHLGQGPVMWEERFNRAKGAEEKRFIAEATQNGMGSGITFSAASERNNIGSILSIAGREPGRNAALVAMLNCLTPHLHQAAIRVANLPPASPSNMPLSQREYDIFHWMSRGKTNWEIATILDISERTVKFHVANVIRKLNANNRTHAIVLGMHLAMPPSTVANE
Assay: Inhibition of CviR in Chromobacterium violaceum CV026 assessed as reduction of violacein production after 15 hrs
pIC50: −log10 of the molar value.
# cutoff 4 applies to pIC50; >= gives YES, < gives NO

Some entries whose results are on file:
O=C(COc1ccc(C2=NCCN2)cc1)Nc1ccccc1 ... YES
COc1ccc(NC(=O)COc2ccc(C3=NCCN3)cc2)cc1 ... NO

Incoming: Determine whether this molecule has pIC50 no lower than 4: O=C(Cc1ccccc1)NC1=NCCS1
Outgoing: NO

Origin of the recorded values: ChEMBL document CHEMBL3751751
